Data origin: paper PMC9911399

- target desc: T1, RBFOX1 RRM (Homo sapiens, UniProt Q9NWB1 109-208)
- T1 sequence: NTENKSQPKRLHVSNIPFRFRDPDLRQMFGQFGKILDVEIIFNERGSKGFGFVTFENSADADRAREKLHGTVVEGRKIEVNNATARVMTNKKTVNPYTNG
- test: EMSA; HiTS-Eq, 1 nM pool, 10 min; buffer printed only for the single-RNA assays: 10 mM Tris pH 7.5, 150 mM NaCl, 3.4 mM EDTA, 0.001% NP-40, 30 C
- measurement setup: tags: His6 N-terminal (pET28a); label: 5' 32P
The full ranking holds about 16,000 sequences; the median of “ka relative to ugcaugu” is about 0.0091, and the highest 2% start at about 0.032. Many of the other results were omitted from the sample, so the highest values are more common in it than they were.
recorded metric: binding signal

Record excerpt, results attached:
[
  {
    "binder": "CGCAUGU (DNA:RNA) RNA: GGGAGACCGGAAUUCAGAUUGUCCCGCAUGUUUAAAUCCCGUCGUAGCCACCA DNA 1: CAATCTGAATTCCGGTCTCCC DNA 2: TGGTGGCTACGACGGGATT",
    "result": "0.735 KA relative to UGCAUGU"
  },
  {
    "binder": "GCAUGUU (DNA:RNA) RNA: GGGAGACCGGAAUUCAGAUUGUCCGCAUGUUUUAAAUCCCGUCGUAGCCACCA DNA 1: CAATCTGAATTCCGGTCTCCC DNA 2: TGGTGGCTACGACGGGATT",
    "result": "0.635 KA relative to UGCAUGU"
  },
  {
    "binder": "GCAUAGU (DNA:RNA) RNA: GGGAGACCGGAAUUCAGAUUGUCCGCAUAGUUUAAAUCCCGUCGUAGCCACCA DNA 1: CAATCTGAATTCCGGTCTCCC DNA 2: TGGTGGCTACGACGGGATT",
    "result": "0.0104 KA relative to UGCAUGU"
  }
]

Please examine the following record next.
Fill in binding signal for record GCAAUGU (DNA:RNA) RNA: GGGAGACCGGAAUUCAGAUUGUCCGCAAUGUUUAAAUCCCGUCGUAGCCACCA DNA 1: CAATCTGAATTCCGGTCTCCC DNA 2: TGGTGGCTACGACGGGATT
0.01 KA relative to UGCAUGU
